Tested on: 201T
Test: relative viability (nuclei count vs DMSO), 5 days (fraction); higher = more cells survive
Details: first compound 0.1265 µM
Each entry below carries its reported relative viability.

compound	target system	relative viability
Cc1sc2c(c1C)C(c1ccc(Cl)cc1)=N[C@@H](CC(=O)OC(C)(C)C)c1nnc(C)n1-2 [JQ1] + CC(C)C[C@H](NC(=O)[C@H](Cc1ccccc1)NC(=O)c1cnccn1)B(O)O [Bortezomib] (partner 0.002 µM)	201T	0.643
Cc1sc2c(c1C)C(c1ccc(Cl)cc1)=N[C@@H](CC(=O)OC(C)(C)C)c1nnc(C)n1-2 [JQ1] + COc1cccc2cc(-c3nc([C@H]4CC[C@H](C(=O)O)CC4)n4ncnc(N)c34)[nH]c12 [OSI-027] (partner 0.5 µM)	201T	0.596

----------
System: SW 900
Test: relative viability (nuclei count vs DMSO), 5 days (fraction); higher = more cells survive
Conditions: first compound 0.253 µM
Recorded relative viability values for a group of compounds are listed next.
readout name: relative viability

compound	measured
O=c1[nH]c2ccccc2n1C1CCN(CCCC(c2ccc(F)cc2)c2ccc(F)cc2)CC1 [Pimozide] + Nc1nc2[nH]cc(CCc3ccc(C(=O)N[C@@H](CCC(=O)O)C(=O)O)cc3)c2c(=O)[nH]1 [Pemetrexed] (partner 0.2 µM)	0.465
O=c1[nH]c2ccccc2n1C1CCN(CCCC(c2ccc(F)cc2)c2ccc(F)cc2)CC1 [Pimozide] + COc1cccc2cc(-c3nc([C@H]4CC[C@H](C(=O)O)CC4)n4ncnc(N)c34)[nH]c12 [OSI-027] (partner 0.5 µM)	0.581
Cc1cnc(-c2cnc(NCCNc3ccc(C#N)cn3)nc2-c2ccc(Cl)cc2Cl)[nH]1 + COc1cc2c(Oc3ccc(NC(=O)C4(C(=O)Nc5ccc(F)cc5)CC4)cc3F)ccnc2cc1OCCCN1CCOCC1 [Foretinib] (partner 0.25 µM)	0.78
O=c1[nH]c2ccccc2n1C1CCN(CCCC(c2ccc(F)cc2)c2ccc(F)cc2)CC1 [Pimozide] + CCNC(=O)c1noc(-c2cc(C(C)C)c(O)cc2O)c1-c1ccc(CN2CCOCC2)cc1 [Luminespib] (partner 0.01 µM)	0.157

----------
Tested on: PC-3 [JPC-3]
Test: relative viability (nuclei count vs DMSO), 5 days (fraction); higher = more cells survive
Conditions: first compound 0.05 µM
Each entry below lists one item and its recorded relative viability value.
readout name: relative viability

compound	measured
Nc1ccn([C@@H]2O[C@H](CO)[C@@H](O)[C@@H]2O)c(=O)n1 [Cytarabine] + Cc1nc(NC(=O)N2CCC[C@H]2C(N)=O)sc1-c1ccnc(C(C)(C)C(F)(F)F)c1 [Alpelisib] (partner 2 µM)	0.927
COc1cc2nccc(Oc3ccc(NC(=O)Nc4cc(C)on4)c(Cl)c3)c2cc1OC [Tivozanib] + NC(=O)Nc1cc(-c2cccc(F)c2)sc1C(=O)N[C@H]1CCCNC1 [AZD7762] (partner 0.2 µM)	0.927
COc1cc2nccc(Oc3ccc(NC(=O)Nc4cc(C)on4)c(Cl)c3)c2cc1OC [Tivozanib] + N=C(N)NC(=N)NCCc1ccccc1 [Phenformin] (partner 250 µM)	0.516
COc1cc2nccc(Oc3ccc(NC(=O)Nc4cc(C)on4)c(Cl)c3)c2cc1OC [Tivozanib] + Nc1nc2[nH]cc(CCc3ccc(C(=O)N[C@@H](CCC(=O)O)C(=O)O)cc3)c2c(=O)[nH]1 [Pemetrexed] (partner 0.2 µM)	1.09
Nc1ccn([C@@H]2O[C@H](CO)[C@@H](O)[C@@H]2O)c(=O)n1 [Cytarabine] + N=C(N)NC(=N)NCCc1ccccc1 [Phenformin] (partner 250 µM)	0.418
